target: T1, murine GPC3 (6938-GP; R&D systems), biotinylated (murine, UniProt Q8CFZ4 25-558, limits assumed, biotinylated using standard NHS chemistry); experiment: SPR (Biacore T200), biotinylated GPC3 captured on chip, mutein in flow
T1 construct: Bought protein; also called mouse GPC3
T1 sequence (Q8CFZ4 25-558 limits assumed): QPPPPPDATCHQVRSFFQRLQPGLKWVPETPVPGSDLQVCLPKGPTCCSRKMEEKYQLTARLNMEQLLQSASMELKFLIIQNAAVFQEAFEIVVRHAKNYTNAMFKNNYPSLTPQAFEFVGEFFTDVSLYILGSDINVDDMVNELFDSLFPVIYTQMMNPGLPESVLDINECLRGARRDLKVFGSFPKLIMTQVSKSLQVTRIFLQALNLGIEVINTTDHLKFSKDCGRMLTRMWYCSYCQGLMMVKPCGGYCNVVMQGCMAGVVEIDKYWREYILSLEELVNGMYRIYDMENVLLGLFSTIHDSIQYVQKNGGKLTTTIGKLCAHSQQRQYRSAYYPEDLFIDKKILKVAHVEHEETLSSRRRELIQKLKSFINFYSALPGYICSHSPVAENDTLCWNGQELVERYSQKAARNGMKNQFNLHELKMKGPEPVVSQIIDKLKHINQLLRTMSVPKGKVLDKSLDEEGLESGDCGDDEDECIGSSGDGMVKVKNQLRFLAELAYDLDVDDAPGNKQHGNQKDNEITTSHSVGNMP

[
  {
    "BINDER": "lipocalin mutein of SEQ ID NO: 3 (designed binder, hNGAL (Lcn2) mutein; also called non-optimized GPC3-specific Lcn2 mutein; mother clone) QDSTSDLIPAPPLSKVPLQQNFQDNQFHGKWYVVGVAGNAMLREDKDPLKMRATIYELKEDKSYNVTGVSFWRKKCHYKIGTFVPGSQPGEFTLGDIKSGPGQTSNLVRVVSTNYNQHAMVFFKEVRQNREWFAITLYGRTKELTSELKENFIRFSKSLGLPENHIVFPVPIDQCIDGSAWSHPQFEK",
    "koff [s⁻¹]": 0.0003
  },
  {
    "BINDER": "lipocalin mutein of SEQ ID NO: 5 (designed binder, hNGAL (Lcn2) mutein; also called optimized GPC3 specific lipocalin mutein) QDSTSDLIPAPPLSKVPLQQNFQDNQFQGKWYVVGVAGNALLREDKDPLKMRATIYELKEDKSYDVTVVSFWRKKCHYKIGTFVPGSQPGEFTLGDIKSGPGQTSNLVRVVSTNYNQHAMVFFKEVRQNREWFAITLYGRTKELTSELKENFIRFSKSLGLPENHIVFPVPIDQCIDGSAWSHPQFEK",
    "koff [s⁻¹]": 0.00026
  },
  {
    "BINDER": "lipocalin mutein of SEQ ID NO: 10 (designed binder, hNGAL (Lcn2) mutein; also called optimized GPC3 specific lipocalin mutein) QDSTSDLIPAPPLSKVPLQQNFQDNQFQGKWYVVGRAGNGALREDKDPPKMWATIYELKEDKSYDVTNVRFARKKCVYSIGTFVPGSQPGEFTLGPIKSEPGNTASLVRVVSTNYNQHAMVFFKEVYQNREIFFIILYGRTKELTSELKENFIRFSKSLGLPENHIVFPVPIDQCIDGSAWSHPQFEK",
    "koff [s⁻¹]": 0.00017
  }
]
